Can you tell me apparent KD of MS2 coat protein for the items I'm about to list?
# Tested on: MS2 coat protein
# procedure_summary: apparent KD of MS2 coat protein; higher = weaker reporter binding
# protocol_conditions: Eterna round: R107; input ligand: arginine 13.2 mM
Report the figure in nM without appending any unit label.

Give recorded apparent KD of MS2 coat protein with MS2 coat protein for the following sequence: GCUAGUGGCAGAAGGAGCGACAUUAAAAGUGGUCGAUACAUGAGGAUCACCCAUGUACUAUGUCAGGUAGGUCGCUGCCACUAGC [EAB NP+V+V2 #4 +-Same Structure]
27.8

Give recorded apparent KD of MS2 coat protein with MS2 coat protein for the following sequence: AUGCCUAGUGGAAGGAGCGAGGGUCCUCUCAACAUGAGGAUCACCCAUGUUCUUUUGCACCCUCAGGUAGGUCGCCAUUGGGACA [Veanaris]
30.8

Give recorded apparent KD of MS2 coat protein with MS2 coat protein for the following sequence: CCUUAAUAUAGAAGGAGCGCGCUAACAUGAGGAUCACCCAUGUAAAGGGUUUUUGGCUUAGCGCAGGUAGGUCGCUAUAAGAACC [Arg B Ex t1]
74

Give recorded apparent KD of MS2 coat protein with MS2 coat protein for the following sequence: GGCGUCGGGCGAAGGAGCGUGAAGACAUGAGGAUCACCCAUGUAGAGGCCCGAACAGGGUUCGCAGGUAGGUCGCGCGCGGUGCC [#1 Same State - Arginine B Attempt #6 (HarryS)]
11.5

Give recorded apparent KD of MS2 coat protein with MS2 coat protein for the following sequence: AGUACUCGAACGGAUACCAGCCGGACAUGAGGAUCACCCAUGUCCUACCAUGUCUCGGUUGGCCCUUGGCAGCCGUUCGUGUACA [Omei Theo B SS A v2]
17

Give recorded apparent KD of MS2 coat protein with MS2 coat protein for the following sequence: UCCUCAUGGCAUGAUACCAGACCUAACAUGAGGAUCACCCAUGUAUCAGGCAAUUGUUACGUCCCUUGGCAGCAUGUAUGCCGAC [Theo B SS t4]
33.6

---

# System: MS2 coat protein
# procedure_summary: apparent KD of MS2 coat protein, switch OFF state (with FMN for OFF switches, without FMN for ON switches); designed switch direction (-1 OFF switch, 1 ON switch): -1; higher = weaker reporter binding
# protocol_conditions: FMN input: 0 or 200 uM; Eterna round: R93 (includes R88 designs)
measure_name: apparent KD of MS2 coat protein (nM)
Report the figure in nM without appending any unit label.

Need apparent KD of MS2 coat protein, item UAGAACCUAGGAUAUACUUGGAAAAAUAAUGCAAAGAUAUAACAUGAGGAUCACCCAUGUAGAAGGAGGAGUAA [JR_Exc002_Sub020]
35.9

Need apparent KD of MS2 coat protein, item ACUAAACGAGGAUAUACUGACAAACCUCAAACAUACAUCAAACAUGAGGAUCACCCAUGUAGAAGGCGUAAACU [JR_Exc002_Sub401]
19.6

Need apparent KD of MS2 coat protein, item AAAAAGCGAGGAUAUACGAAGCUAAGACAAAUAAGCAAGGGACAUGAGGAUCACCCAUGUAGAAGGCGCAAAAA [Exclusion 2-01... 60% 2]
58.6

Need apparent KD of MS2 coat protein, item AACAGUACAGGAUAUACAUGAGGAUCACCCAUGUCACACAAAUAAAACAAAAAUAAAAGUAGAAGGGUACUGGA [Ruby 40]
25.9

Need apparent KD of MS2 coat protein, item AAAAAACAUGAGGAUCACCCAUGUGAGGAUAUACAAAACCCAUAUAAAAAGGGAAAAAGUAGAAGGCACAAAAA [wbt round 1 mod 11]
33.9

Need apparent KD of MS2 coat protein, item GAAAAACAUGAGGAUCACCCAUGUAAGGAUAUGCUAAAAAACACGGAAAACGUGAAUAGCAGAAGGUACAAAAG [Mat - Exclusion 1 - Eli mod - D85]
46.8

Need apparent KD of MS2 coat protein, item AGAAAACAUGAGGAUCACCCAUGUGAGGAUAUCGAUGUCCAAAAAAAAGUGCGGGACUCGAGAAGGCACUUGGA [Erbelaed]
32.5

Need apparent KD of MS2 coat protein, item AAAAAGGCAGGAUAUGCAUACUCACGGAAAAAAAGGUUGGGACAUGAGGAUCACCCAUGUAGAAGGGCCAAAAA [Dora Explored 14 - Jieux - Exclusion 2]
23.8

Need apparent KD of MS2 coat protein, item AGAAAGUUAGGAUAUACAGAUAAAAAAACGAAAAAAAAUCUGUAGAAGGAACAUGAGGAUCACCCAUGUAAAGA [Mat - Exclusion 4 - Mayanna - D105]
23.2

Need apparent KD of MS2 coat protein, item AAGAAGUAAGGAUAUACAAAAUAAAAGAAAAGAAAGAAAGAACAUGAGGAUCACCCAUGUAGAAGGUACAAGAA [Sankhkare Mentuhotep III]
19.6

Need apparent KD of MS2 coat protein, item AAUAAACAUGAGGAUCACCCAUGUAAGGAUAUCGAAAAAAAAAUAAACAAAAAAAAAACGAGAAGGUACAAAAA [Exclusion 1 design 2]
27

Need apparent KD of MS2 coat protein, item CAAAACAGAGGAUAUACAUGAGGAUCACCCAUGUAAAAAUGUAGAAGGCUGAAACAAACAAGAAGGAAACAAAA [Meechl Ex3 R2 m3]
30.1

Need apparent KD of MS2 coat protein, item CAGUACUGAGGAUAUACAUGAGGAUCACCCAUGUAAAAAAGCUACGAAAGUAGCAAAUGUAGAAGGCAGUACUG [Ex3: 804]
22.8
